Read-out record for ErbB2 (Homo sapiens): IC50

Examples from the recorded data:
COc1cc(C)c(Nc2ncnc(Nc3cc(-c4ccc(Cl)cc4)n[nH]3)n2)cc1OC ... 0.913 to 5.48 µM
COc1cc(Nc2ncnc(N(C)c3cccc4ccccc34)n2)cc(OC)c1OC ... 0.958 to 5.75 µM
Brc1cccc(Nc2ncnc(Nc3cccc(Br)c3)n2)c1 ... 0.95 to 5.7 µM
COc1ccc(Nc2ncnc(NCCCN3CCCCC3C)n2)cc1OC (centres unmarked) ... > 11.6 µM
CCN(CC)CCOc1cc(Nc2ncnc(Nc3cc(OC)c(OC)c(OC)c3)n2)ccc1OC ... 4.81 to 7.02 µM
Fc1cccc(CNc2nc3ccccc3n2-c2ncnc(Nc3cccc(Cn4ccnn4)c3)n2)c1 ... 4.87 to 7.11 µM

// `COc1cc(Nc2ncnc(Nc3ccc(C(=O)O)cc3)n2)cc(OC)c1OC` : IC50 value = 1.01 to 6.04 µM

// `COc1cc(Nc2ncnc(Nc3ccc4c(cnn4Cc4ccccc4)c3)n2)cc(OC)c1OC` : IC50 value = < 0.827 µM
